Reported pIC50 against Serine/threonine-protein kinase PLK1 (Homo sapiens), gathered from multiple publications, appears below.
pIC50: −log10 of the molar value.
Property measured: pIC50

Molecule	Value measured
CC[C@@]12COCCN1c1nc(-n3ccnc3-c3ccccc3)ncc1N(C)C2=O (single isomer, unassigned)	< 4.30
CC[C@H]1C(=O)N(C)c2cnc(-n3ccnc3-c3ccccc3)nc2N1c1cnn(C)c1	< 4.30
CC[C@@H]1C(=O)N(C)c2cnc(Nc3ccc(C(=O)NC4CCN(CCCC(=O)N[C@H](CC(C)C)C(=O)O)CC4)cc3OC)nc2N1C1CCCC1	> 7.00
CN1CCN(CCCn2cc(-c3cnc4[nH]c5cnc(-c6cccnc6)cc5c4c3)cn2)CC1	6.00 to 7.00
